Attribution: patent US20260242478A1

Biological target: Anti-CD28 Fab (SEQ ID NOs: 696, 697) (biotinylated (site not given))
Sequence (VH, as listed by the source, chain 1 of 2): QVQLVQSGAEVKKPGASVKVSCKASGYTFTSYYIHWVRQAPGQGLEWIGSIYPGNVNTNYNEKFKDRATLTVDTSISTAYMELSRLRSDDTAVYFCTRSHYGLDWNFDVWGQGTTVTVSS
Sequence (VL, as listed by the source, chain 2 of 2): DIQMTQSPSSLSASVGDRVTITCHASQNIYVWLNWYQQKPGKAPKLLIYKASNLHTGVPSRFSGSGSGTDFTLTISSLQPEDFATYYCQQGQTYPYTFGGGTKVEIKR
Assay: phage binding ELISA on captured anti-CD28 Fab; competitor: CD28 antigen added to the wells before the phage
result-type: Anti-CD28 Fab signal in the presence of CD28

* TCAAGATYEWPACL [Phage-1394] | 0.07
* TCAAGAHYLWPWCM [Phage-1402] | 0.08
* TCSEGATYTWPWCF [Phage-1401] | 0.06
* TCAAVFSYGWPECF [Phage-1396] | 0.07
